Reported pIC50 values are given for each entry in this list.
- System Name: Neuraminidase (Influenza A virus)
- Sequence (B4URF0 whole entry): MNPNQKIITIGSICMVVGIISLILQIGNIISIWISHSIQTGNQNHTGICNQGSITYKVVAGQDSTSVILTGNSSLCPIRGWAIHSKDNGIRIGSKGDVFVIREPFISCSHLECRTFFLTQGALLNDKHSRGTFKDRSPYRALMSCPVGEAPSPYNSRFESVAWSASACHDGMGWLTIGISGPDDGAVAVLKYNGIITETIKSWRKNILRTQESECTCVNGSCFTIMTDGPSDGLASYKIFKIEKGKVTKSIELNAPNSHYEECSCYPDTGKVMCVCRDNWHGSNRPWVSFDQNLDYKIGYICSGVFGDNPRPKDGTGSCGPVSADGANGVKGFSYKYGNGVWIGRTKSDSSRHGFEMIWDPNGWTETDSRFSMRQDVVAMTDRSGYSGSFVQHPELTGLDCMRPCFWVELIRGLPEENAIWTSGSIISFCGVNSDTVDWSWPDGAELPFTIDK
- Test Protocol: Inhibition of Influenza A virus type A H3N2 neuraminidase
- Assay Conditions: read-out: IC50
pIC50: −log10 of the molar value. Where a SMILES comes first, the peptide text is derived from it. [ ]: non-standard residue; d: D form. The star is where a group is joined. Hyp = O=C(O)[C@@H]1C[C@@H](O)CN1; Boc = CC(C)(C)OC(=O)*; NHOH = ON*
Measured Property: pIC50

CC[C@H](C)[C@H](NC(=O)OC(C)(C)C)C(=O)N1C[C@H](O)C[C@H]1C(=O)NO (Boc-Ile-[Hyp]-{NHOH})    5.67
CC(C)C[C@H](NC(=O)OC(C)(C)C)C(=O)N1C[C@H](O)C[C@H]1C(=O)NO (Boc-Leu-[Hyp]-{NHOH})    5.41
C[C@H](NC(=O)OC(C)(C)C)C(=O)N1C[C@@H](N)C[C@H]1C(=O)NO    4.90
CC(C)[C@H](NC(=O)OC(C)(C)C)C(=O)N1C[C@H](O)C[C@H]1C(=O)O (Boc-Val-[Hyp]-OH)    5.33
CC(C)(C)OC(=O)N[C@@H](Cc1ccccc1)C(=O)N1C[C@H](O)C[C@H]1C(=O)NO (Boc-Phe-[Hyp]-{NHOH})    5.37
CSCC[C@H](NC(=O)OC(C)(C)C)C(=O)N1C[C@@H](N)C[C@H]1C(=O)O    5.81
CC(=O)N1C[C@H](O)C[C@@H]1C(=O)O    4.31
O=C(NO)[C@@H]1C[C@@H](O)CN1C(=O)Cc1ccccc1Nc1c(Cl)cccc1Cl    5.07
CC(C)[C@H](NC(=O)OC(C)(C)C)C(=O)N1C[C@@H](N)C[C@H]1C(=O)O    5.37
CC(C)(C)OC(=O)N[C@@H](Cc1ccccc1)C(=O)N1C[C@H](O)C[C@H]1C(=O)O (Boc-Phe-[Hyp]-OH)    5.55
CC(C)(C)OC(=O)N[C@@H](Cc1ccccc1)C(=O)N1C[C@@H](N)C[C@H]1C(=O)O    5.62
N[C@H]1C[C@@H](C(=O)O)N(C(=O)Cc2ccccc2Nc2c(Cl)cccc2Cl)C1    4.79
COC(=O)[C@@H]1C[C@H](N)CN1C(=O)[C@H](C)NC(=O)OC(C)(C)C    4.08
COC(=O)[C@@H]1C[C@@H](N)CN1C(=O)[C@@H](N)CC(C)C    4.32
CC(C)C[C@H](NC(=O)OC(C)(C)C)C(=O)N1C[C@H](O)C[C@H]1C(=O)O (Boc-Leu-[Hyp]-OH)    4.94
CC[C@H](C)[C@H](NC(=O)OC(C)(C)C)C(=O)N1C[C@@H](N)C[C@H]1C(=O)NO    5.68
CC(C)(C)OC(=O)N[C@@H](Cc1ccccc1)C(=O)N1C[C@@H](N)C[C@H]1C(=O)NO    5.38
CC(C)C[C@H](NC(=O)OC(C)(C)C)C(=O)N1C[C@@H](N)C[C@H]1C(=O)NO    5.21
N[C@H]1C[C@@H](C(=O)NO)N(C(=O)Cc2ccccc2Nc2c(Cl)cccc2Cl)C1    5.45
